TARGET UNDER TEST: Recombinant human furin (human)
TEST DETAILS: furin, Pyr-RTKR-AMC cleavage
# Ki per record follows
MEASUREMENT NAME: Ki

# SUBSTANCE, REPORTED
data = [
    ("TPQRkRRRKKRG (peptide)", "> 0.1 µM"),
    ("TPQR3RRRKKRG (peptide)", "> 0.1 µM"),
    ("TPQR4RRRKKRG (peptide)", "> 0.1 µM"),
    ("TPQReRRRKKRG (peptide)", "> 0.1 µM"),
    ("TPQR7RRRKKRG (peptide)", "> 0.1 µM"),
    ("TPQR1RRRKKRG (peptide)", "> 0.1 µM"),
    ("TPQR6RRRKKRG (peptide)", "> 0.1 µM"),
    ("TPQRrRRRKKRG (peptide)", "> 0.1 µM"),
    ("TPQR5RRRKKRG (peptide)", "> 0.1 µM"),
    ("TPQR8RRRKKRG (peptide)", "> 0.1 µM"),
    ("TPQR2RRRKKRG (peptide)", "> 0.1 µM"),
]

The origin of these recorded values is patent US20090029924A1.
